Values compiled from ChEMBL document CHEMBL1135937.

Documented Ki across a set of compounds
- TARGET OF ASSAY: Norepinephrine transporter (Rattus norvegicus)
- Sequence (Q9WTR4 whole entry): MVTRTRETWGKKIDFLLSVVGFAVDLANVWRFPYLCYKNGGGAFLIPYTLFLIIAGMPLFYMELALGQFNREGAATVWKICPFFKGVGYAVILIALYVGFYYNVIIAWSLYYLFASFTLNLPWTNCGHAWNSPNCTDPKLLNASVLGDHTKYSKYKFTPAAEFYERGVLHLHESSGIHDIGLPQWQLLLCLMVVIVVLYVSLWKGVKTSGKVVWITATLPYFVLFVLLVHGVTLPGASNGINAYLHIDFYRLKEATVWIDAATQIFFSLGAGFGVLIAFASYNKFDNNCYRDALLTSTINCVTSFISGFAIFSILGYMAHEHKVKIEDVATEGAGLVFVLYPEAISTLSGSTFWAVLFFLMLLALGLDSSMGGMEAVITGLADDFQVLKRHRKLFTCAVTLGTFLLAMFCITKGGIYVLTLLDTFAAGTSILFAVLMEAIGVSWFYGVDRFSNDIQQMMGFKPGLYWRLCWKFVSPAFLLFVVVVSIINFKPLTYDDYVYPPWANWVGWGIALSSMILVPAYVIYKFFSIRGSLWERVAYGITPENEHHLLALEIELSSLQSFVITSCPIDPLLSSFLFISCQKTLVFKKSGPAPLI
- EXPERIMENT SUMMARY: Ability to inhibit high affinity reuptake of [3H]-NE (Norepinephrine transporter) into nerve ending synaptosomes prepared from brain regions
OBSERVABLE: Ki (nM)

1) O=C(OCC1C2CC3CCC1N3C/C2=C\c1ccc(Br)cc1)c1ccccc1 (stereo unspecified) :: 4470
2) COC(=O)C1C2CC3CCC1N3C/C2=C\c1ccc(OC)cc1 (stereo unspecified) :: 187
3) CC(=O)OCC1C2CC3CCC1N3C/C2=C\c1ccc2ccccc2c1 (stereo unspecified) :: 672
4) COC(=O)C1C2CC3CCC1N3C/C2=C\c1ccc(C(F)(F)F)cc1 (stereo unspecified) :: 1830
5) COC(=O)C1C2CC3CCC1N3C/C2=C\c1ccc(Cl)c(Cl)c1 (stereo unspecified) :: 1000
